Assay: Metabolic stability in human liver microsomes assessed as clearance by LC/MS-MS analysis
Assay type: ADME, Microsome
Quick reference for CLhep predicted among some compounds
Please respond with the number in L/h/kg and leave the unit unwritten.

Below are worked cases with known answers.
> print(dat)
                               query.smiles     assay.metric  reported.result
1  O=c1c2cccnc2ncn1Cc1nc([C@H]2[C@@H]3CN(c4cc(Cl)ccn4)C[C@@H]32)no1  CLhep predicted              0.6
2  Cn1cnc2ncn(Cc3nc([C@@H]4CO[C@@H](c5ccc(Cl)cc5)C4)no3)c(=O)c21  CLhep predicted              0.3
3  Cc1ncn2ncn(Cc3nc([C@H]4[C@@H]5CN(c6cccc(Cl)c6)C[C@@H]54)no3)c(=O)c12  CLhep predicted             0.84
4  Cn1cnc2ncn(Cc3nn(C[C@H](F)c4ccc(Cl)cc4)c(=O)o3)c(=O)c21  CLhep predicted            0.336
5  O=c1c2cccnc2cnn1Cc1nc([C@H]2[C@@H]3CN(c4cc(Cl)ccn4)C[C@@H]32)no1  CLhep predicted             0.84

CLhep predicted for Cn1cnc2ncn(Cc3nc(CCc4ccc(Cl)cc4)no3)c(=O)c21 ?
0.72

Given Cn1cnc2ncn(Cc3nn([C@H]4CC[C@H](c5ccc(Cl)cc5)CC4)c(=O)o3)c(=O)c21 , state its recorded CLhep predicted.
0.258

What measured CLhep predicted goes with Cc1cnn2ncn(Cc3nc([C@H]4[C@@H]5CN(c6cccc(Cl)c6)C[C@@H]54)no3)c(=O)c12 ?
0.9

Which value of CLhep predicted has been reported for Cn1cnc2ncn(Cc3nc([C@@H]4CO[C@@H](c5ccc(F)cc5)C4)no3)c(=O)c21 in the records?
0.258

What value of CLhep predicted has been recorded for this entry: Cn1cnc2ncn(Cc3nn(CCOc4cccc(Cl)c4)c(=O)o3)c(=O)c21
0.66

----------
Test: Protein binding in rat plasma
Type: ADME, cell-free
Conditions: read-out: PPB (converted)
ASSAY METRIC: fraction unbound
Please reply with the value in numeric form only.

Record excerpt, results attached:
> print(dat)
                               query.smiles  reported.result
1  Cn1cnc2ncn(Cc3nc([C@@H]4CO[C@@H](c5ccc(Cl)cc5)C4)no3)c(=O)c21            0.246
2  Cn1cnc2ncn(Cc3nc([C@H]4[C@@H]5CN(c6cc(Cl)ccn6)C[C@@H]54)no3)c(=O)c21            0.087
3  Cc1cnn2ncn(Cc3nc([C@H]4[C@@H]5CN(c6cccc(Cl)c6)C[C@@H]54)no3)c(=O)c12             0.02

Attention now turns to another entry.
# query: fraction unbound of entry Cn1cnc2ncn(Cc3nc([C@H]4[C@@H]5CN(c6cccc(Cl)c6)C[C@@H]54)no3)c(=O)c21
0.018

----------
As shown below, each of these molecules has a reported CLhep predicted value.
Assay: Metabolic stability in rat liver microsomes assessed as clearance by LC/MS-MS analysis
Type: ADME, Microsome
Quick note: give the figure in mL/min/kg, leave out the unit.

Below, each entry is followed by its recorded CLhep predicted result.
> print(dat)
                               query.smiles  reported.result
1  Cn1cnc2ncn(Cc3nn(C[C@H](F)c4ccc(Cl)cc4)c(=O)o3)c(=O)c21               28
2  O=c1c2cccnc2cnn1Cc1nc([C@H]2[C@@H]3CN(c4cc(Cl)ccn4)C[C@@H]32)no1               27
3  Cn1cnc2ncn(Cc3nn(CCCOc4cccc(Cl)c4)c(=O)o3)c(=O)c21               44
4  Cn1cnc2ncn(Cc3nn([C@@H]4CC[C@@H](c5ccc(Cl)cc5)C4)c(=O)o3)c(=O)c21               36

Next, consider the following molecule.
Entry under review: Cn1cnc2ncn(Cc3nc([C@@H]4CO[C@@H](c5ccc(F)cc5)C4)no3)c(=O)c21 . Reported CLhep predicted?
9

----------
Test: Antagonist activity at rat TRPA1 expressed in CHO cells assessed as cinnamaldehyde-induced calcium flux measured after 90 mins by FLIPR assay
Assay type: cell-based
Conditions: 1.5 h
ASSAY METRIC: IC50

// known answers, use as guide
> print(dat)
                               query.smiles  reported.result
1  Cn1cnc2ncn(Cc3nc([C@H]4[C@@H]5CN(c6cccc(Cl)c6)C[C@@H]54)no3)c(=O)c21           7.9 nM
2  Cn1cnc2ncn(Cc3nc([C@H]4[C@@H]5CN(c6cc(Cl)ccn6)C[C@@H]54)no3)c(=O)c21            18 nM

Look at this compound and give its reported IC50. Cn1cnc2ncn(Cc3nn(C[C@H](F)c4ccc(Cl)cc4)c(=O)o3)c(=O)c21
18 nM

Report IC50 for Cc1cnn2ncn(Cc3nc([C@H]4[C@@H]5CN(c6cccc(Cl)c6)C[C@@H]54)no3)c(=O)c12 please.
8.2 nM

Can you look up the measured IC50 of Cn1cnc2ncn(Cc3nc([C@@H]4CO[C@@H](c5ccc(Cl)cc5)C4)no3)c(=O)c21 for me?
7.4 nM

Given Cn1cnc2ncn(Cc3nc(CCc4ccc(Cl)cc4)no3)c(=O)c21 , state its recorded IC50.
80 nM

----------
Experiment: Unbound Volume of distribution at steady state in rat at 1 mg/kg
Type: ADME, organism-based
Conditions: in vivo
ASSAY METRIC: Vduss (L/kg)
Number only, in L/kg; omit the unit.

Example entries begin here.
> print(dat)
                               query.smiles  reported.result
1  Cn1cnc2ncn(Cc3nc([C@H]4[C@@H]5CN(c6cccc(Cl)c6)C[C@@H]54)no3)c(=O)c21              128
2  Cn1cnc2ncn(Cc3nc([C@@H]4CO[C@@H](c5ccc(Cl)cc5)C4)no3)c(=O)c21             8.54
3  Cn1cnc2ncn(Cc3nn(C[C@H](F)c4ccc(Cl)cc4)c(=O)o3)c(=O)c21             3.14

May I ask what Vduss has been recorded for Cc1cnn2ncn(Cc3nc([C@H]4[C@@H]5CN(c6cccc(Cl)c6)C[C@@H]54)no3)c(=O)c12 ?
140

Could you tell me which Vduss is on file for Cn1cnc2ncn(Cc3nc([C@H]4[C@@H]5CN(c6cc(Cl)ccn6)C[C@@H]54)no3)c(=O)c21 ?
20.7

----------
Experiment: Stability in rat plasma assessed as compound remaining after 4 hrs
Assay type: ADME, cell-free
Details: read-out: Stability
ASSAY METRIC: remaining at 4 h

Requested read-out: remaining at 4 h. Entry: Cn1cnc2ncn(Cc3nn([C@@H]4CO[C@@H](c5ccc(Cl)cc5)C4)c(=O)o3)c(=O)c21
61%

----------
Assay: Metabolic stability in rat hepatocytes assessed as clearance
Assay type: ADME, cell-based, Hepatocyte
CLhep predicted under 40 mL/min/kg gets 1, anything at or over 40 mL/min/kg gets -1.

Solved entries:
> print(dat)
                               query.smiles  category
1  Cc1cnn2ncn(Cc3nc([C@H]4[C@@H]5CN(c6cccc(Cl)c6)C[C@@H]54)no3)c(=O)c12        -1
2  Cn1cnc2ncn(Cc3nc([C@@H]4CO[C@@H](c5ccc(Cl)cc5)C4)no3)c(=O)c21         1
3  Cn1cnc2ncn(Cc3nn(C[C@H](F)c4ccc(Cl)cc4)c(=O)o3)c(=O)c21         1
4  Cn1cnc2ncn(Cc3nc([C@H]4[C@@H]5CN(c6cc(Cl)ccn6)C[C@@H]54)no3)c(=O)c21         1

Could you now consider this next molecule?
is_below(CLhep predicted, 40 mL/min/kg) for Cn1cnc2ncn(Cc3nc([C@H]4[C@@H]5CN(c6cccc(Cl)c6)C[C@@H]54)no3)c(=O)c21 ?
1

----------
Test: Stability in human plasma assessed as compound remaining after 4 hrs
Assay type: ADME, cell-free
Conditions: read-out: Stability
ASSAY METRIC: remaining at 4 h

I have this compound here, Cn1cnc2ncn(Cc3nn([C@@H]4CO[C@@H](c5ccc(Cl)cc5)C4)c(=O)o3)c(=O)c21 , and I need its recorded remaining at 4 h.
76%

----------
Assay: Volume of distribution at steady stare in rat at 1 mg/kg
Type: ADME, organism-based
Details: in vivo, read-out: Vdss
ASSAY METRIC: Vd (L/kg)
Answer format: numeric, L/kg implied, no suffix.

> print(dat)
                               query.smiles  reported.result
1  Cn1cnc2ncn(Cc3nc([C@@H]4CO[C@@H](c5ccc(Cl)cc5)C4)no3)c(=O)c21              2.1
2  Cn1cnc2ncn(Cc3nc([C@H]4[C@@H]5CN(c6cccc(Cl)c6)C[C@@H]54)no3)c(=O)c21              2.3
3  Cn1cnc2ncn(Cc3nc([C@H]4[C@@H]5CN(c6cc(Cl)ccn6)C[C@@H]54)no3)c(=O)c21              1.8
4  Cc1cnn2ncn(Cc3nc([C@H]4[C@@H]5CN(c6cccc(Cl)c6)C[C@@H]54)no3)c(=O)c12              2.8

Now, please, on to the next molecule.
I would be grateful if you could share the reported Vd for Cn1cnc2ncn(Cc3nn(C[C@H](F)c4ccc(Cl)cc4)c(=O)o3)c(=O)c21 .
1.3
